- experimental-system: PDE2 (Homo sapiens)
- Construct: PDE2 was isolated from human platelets, provided by Etablissement Français du Sang-Alsace; tissue Etablissement Français du Sang-Alsace; host or cells: human platelets
- Sequence (O00408 whole entry): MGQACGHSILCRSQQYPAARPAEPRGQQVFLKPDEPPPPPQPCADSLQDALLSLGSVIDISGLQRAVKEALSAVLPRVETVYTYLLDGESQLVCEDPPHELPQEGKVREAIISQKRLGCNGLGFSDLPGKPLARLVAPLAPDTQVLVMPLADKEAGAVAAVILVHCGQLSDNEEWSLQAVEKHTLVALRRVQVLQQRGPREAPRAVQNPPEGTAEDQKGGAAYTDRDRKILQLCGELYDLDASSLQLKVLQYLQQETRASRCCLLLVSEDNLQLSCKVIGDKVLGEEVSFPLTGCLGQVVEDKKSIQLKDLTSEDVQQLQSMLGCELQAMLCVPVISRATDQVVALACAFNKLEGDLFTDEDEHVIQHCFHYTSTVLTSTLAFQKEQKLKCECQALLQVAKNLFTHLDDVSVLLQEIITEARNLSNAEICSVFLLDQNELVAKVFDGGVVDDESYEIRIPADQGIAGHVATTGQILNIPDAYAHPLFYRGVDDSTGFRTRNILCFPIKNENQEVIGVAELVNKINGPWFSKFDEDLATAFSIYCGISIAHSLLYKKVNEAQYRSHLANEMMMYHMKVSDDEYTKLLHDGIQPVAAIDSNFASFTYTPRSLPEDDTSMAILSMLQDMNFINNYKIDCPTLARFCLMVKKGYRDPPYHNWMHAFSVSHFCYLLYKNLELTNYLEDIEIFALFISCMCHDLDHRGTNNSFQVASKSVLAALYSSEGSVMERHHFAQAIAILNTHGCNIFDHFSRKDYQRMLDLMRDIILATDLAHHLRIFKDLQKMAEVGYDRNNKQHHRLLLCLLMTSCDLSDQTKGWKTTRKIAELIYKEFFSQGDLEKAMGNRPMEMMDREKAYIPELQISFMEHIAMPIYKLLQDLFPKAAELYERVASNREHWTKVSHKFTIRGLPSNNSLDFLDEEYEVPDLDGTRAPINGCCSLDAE
- protocol-description: Inhibition of PDE2 (radioenzymatic phosphodiesterase assay)
- Assay type: biochemical
- condition: Table 1; 10 μM compound; 1 μM cyclic AMP; read-out: PDE2 percentage inhibition at 10 μM
recorded-metric: inhibition at 10 µM (%)

compound | experimental-system | value-observed
COc1cc2c(c(OC)c1-c1ccc(Cl)cc1)C(c1cccc(C#N)c1)=NCC(=O)N2 [Compound 2] | PDE2 (Homo sapiens) | 93
COc1cc2c(c(OC)c1-c1ccccc1)C(c1cccc(C#N)c1)=NCC(=O)N2C [Compound 6] | PDE2 (Homo sapiens) | 80
COc1cc2c(c(OC)c1-c1ccccc1)C(c1cccc(Br)c1)=NCC(=O)N2C [Compound 10] | PDE2 (Homo sapiens) | 86
COc1cc2c(c(OC)c1-c1ccc(Cl)cc1)C(c1cccc(C#N)c1)=NCC(=O)N2C [Compound 7] | PDE2 (Homo sapiens) | 61
COCCCc1cccc(C2=NCC(=O)N(C)c3cc(OC)c(-c4ccccc4)c(OC)c32)c1 [Compound 29] | PDE2 (Homo sapiens) | 91
COc1cc2c(c(OC)c1-c1ccccc1)C(c1cccc(C(N)=O)c1)=NCC(=O)N2C [Compound 17] | PDE2 (Homo sapiens) | 80
COc1cc2c(c(OC)c1-c1ccc(Cl)cc1)C(c1cccc(C(N)=O)c1)=NCC(=O)N2C [Compound 18] | PDE2 (Homo sapiens) | 98
COc1cc2c(c(OC)c1-c1ccccc1)C(c1ccccc1)=NCC(=O)N2 [Compound 3] | PDE2 (Homo sapiens) | 25
COc1cc2c(c(OC)c1-c1ccccc1)C(c1ccccc1)=NCC(=O)N2C [Compound 9] | PDE2 (Homo sapiens) | 71
